These data points were gathered from patent US10538528B2.

Please respond with reported pIC50 for every item in the list.
Just so you know, pIC50 here is -log10 of the concentration in molar units; reply with that number alone.

Prompt: Which measured pIC50 belongs to CC1C(=O)Nc2ncnc(N3CCC(c4nc(-c5nccs5)ccc4NCCN4CCCC4)CC3)c21 (stereo not shown) , tested on human Akt1 (Homo sapiens (Human), UniProt P31749)?
Completion: 8.72

Prompt: Lab request: please report pIC50 under test system human Akt1 (Homo sapiens (Human), UniProt P31749) for CC1C(=O)Nc2ncnc(N3CCC(c4nc(-c5cncc(F)c5)ccc4NCCN4CCCC4)CC3)c21 (stereo not shown)
Completion: 9.40

Prompt: Test system human Akt1 (Homo sapiens (Human), UniProt P31749); read-out pIC50; what value for CC(C)NCCNc1ccc(-c2nnc(C(F)F)o2)nc1C1CCN(c2ncnc3c2C(C)(C)C(=O)N3)CC1 ?
Completion: 8.12

Prompt: Given the entry CC(C)(C)NCCNc1ccc(-c2noc(C(F)F)n2)nc1C1CCN(c2ncnc3c2C(C)(C)C(=O)N3)CC1 , what pIC50 was observed with human Akt1 (Homo sapiens (Human), UniProt P31749)?
Completion: 8.14
